Assay: Mycobacterium tuberculosis growth inhibition, primary screen (AID 1259343)
Details: at 10 µM, active compounds read high
About 2,900 (47%) of roughly 6,200 compounds were called active. The set was probably picked from earlier hits. The list shows a part of the results.
Here the recorded inhibition is given for each entry.

compound	inhibition
c1ccc(COC2CCN(CCOc3ccccc3)CC2)cc1	50.1% (active)
Cc1ccc(-c2nc(N3CCN(CCO)CC3)ncc2-c2ccccc2C)cc1	-0.32% (inactive)
CC1CCc2onc(C(=O)Nc3nc4ccccc4n3C)c2C1 (stereo not drawn)	7% (inactive)
Cc1oc(-n2cccc2)c(C#N)c1C(=O)NC1CCC(C)CC1 (stereo not drawn)	77.2% (active)
Clc1ccc2nc(Cl)c3nnnn3c2c1	102% (active)
O=[N+]([O-])c1c(Sc2nnnn2-c2ccccc2)nc2sccn12	99.2% (active)
COc1ccc(C2CCCN2C2=NCc3cnn(C(C)(C)C)c3N2)cc1 (stereo not drawn)	10% (inactive)
O=C(CC1C[C@@H]2CC[C@H]1C2)N1CCc2c(cnn2-c2ccccn2)C1 (stereo partly drawn)	49.8% (inactive)
COCCn1c(SCCc2ccccc2)nc2cc(Cl)ccc2c1=O	15.5% (inactive)
Cn1cc(C(=O)Nc2cccc(C(F)(F)F)c2)c2[nH]c(=O)n(-c3ccc(F)cc3)c(=O)c21	24.6% (inactive)
Cc1cnn(C2CN(c3ccc(S(=O)(=O)C(F)(F)F)cc3)C2)c1	84.2% (active)
O=C(NCc1cccnc1-n1cccn1)C1CCCN(Cc2cccnc2)C1 (stereo not drawn)	-13.9% (inactive)
OCC1(CCc2ccccc2)CCCN(c2ncnc3sccc23)C1 (stereo not drawn)	22.8% (inactive)
O=S(=O)(c1cc(Br)ccc1Br)N1CCC1c1ccccc1 (stereo not drawn)	77.1% (active)
CC(C)c1cc(C(=O)NCc2nc(Cc3cccs3)no2)n(C)n1	13.7% (inactive)
O=C(CCNc1ccc(Cc2ccncc2)cc1)c1ccc2c(c1)OCO2	84.6% (active)
Cc1c(N)c(C)c([N+](=O)[O-])c(C)c1[N+](=O)[O-]	-53.9% (inactive)
Oc1c(C(c2ccc(F)cc2)N2CCOCC2)ccc2cccnc12 (stereo not drawn)	82.2% (active)
Cn1c(=O)c2c(S(C)=O)snc2n(C)c1=O (stereo not drawn)	100% (active)
CCNC(=S)n1ncc(C(=O)OCC)c1N	-17% (inactive)
CC1=NN(c2nc(C)cc(C)n2)C(=O)C1Cc1ccccc1Cl (stereo not drawn)	-7.67% (inactive)
O=P1(Nc2ccc(-c3ccccc3)cc2)C=C(c2ccccc2)OC(c2ccccc2)=C1	98.4% (active)
O=C(c1cnn(-c2ccc(F)cc2)c1)c1ccccc1O	42.7% (inactive)
Oc1cccc(-c2cc(C3CCN(Cc4ccc5nonc5c4)C3)ccn2)c1 (stereo not drawn)	14.6% (inactive)
CCOc1ccc(Cl)cc1CNc1nnnn1C	-8.06% (inactive)
COC(=O)C(C)Sc1nc2c(c(=O)n(C)c(=O)n2C)n1CCC(C)C (stereo not drawn)	26.7% (inactive)
CCC(Cc1c(I)cc(I)c(N)c1I)C(=O)O (stereo not drawn)	84.2% (active)
O=C(c1ccc(Cl)cc1)C1CCCN(Cc2cccc3cnccc23)C1 (stereo not drawn)	-4.04% (inactive)
Cc1ccc(-c2nc(CN3CCOC(c4ccccc4)C3)cs2)o1 (stereo not drawn)	29.6% (inactive)
COCCn1c(SC(C)C)nc2ccc(Br)cc2c1=O	-18.7% (inactive)
CCn1c2ccccc2c2cc(Nc3ccnc(NCCCN4CCOCC4)n3)ccc21	53.6% (active)
CCOC(=O)c1cc([N+](=O)[O-])nn1Cc1ccc(Cl)c(Cl)c1	19.4% (inactive)
Cc1nn2c(NCCN3CCOCC3)cc(-c3ccccc3)nc2c1-c1ccccc1	48.5% (inactive)
